# ASSAYED SYSTEM: eIF4E (Homo sapiens, UniProt P06730)
# Sequence (P06730 32-217): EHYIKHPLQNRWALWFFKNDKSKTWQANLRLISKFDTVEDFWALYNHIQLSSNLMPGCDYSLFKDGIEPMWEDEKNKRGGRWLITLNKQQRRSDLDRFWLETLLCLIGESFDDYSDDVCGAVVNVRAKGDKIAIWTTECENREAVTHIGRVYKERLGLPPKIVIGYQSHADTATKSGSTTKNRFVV
Catalogue of koff values
Provide only the numeric value, understood in s⁻¹.

Example results:
>>> quantitative_readout("CO[C@@H]1[C@H](O)[C@@H](COP(=O)(O)OP(=O)([O-])OP(=O)(O)OCC2CN(C)CC(n3c[n+](C)c4c(=O)[nH]c(N)nc43)O2)O[C@H]1n1cnc2c(=O)[nH]c(N)nc21 (some centres unmarked)")
1.5
>>> quantitative_readout("C[C@@]1(O)[C@H](O)[C@@H](COP(=O)(O)OP(=O)(O)OP(=O)(O)OC[C@H]2O[C@@H](n3cnc4c(=O)[nH]c(N)nc43)[C@H](O)[C@@H]2O)O[C@H]1n1c[n+](CCOc2ccc(Cl)cc2)c2c(=O)[nH]c(N)nc21")
0.057
>>> quantitative_readout("C[n+]1cn([C@@H]2O[C@H](COP(=O)([O-])OP(=O)([O-])OP(=O)(O)OC[C@H]3O[C@@H](n4c[n+](C)c5c(=O)[nH]c(N)nc54)[C@H](O)[C@@H]3O)[C@@H](O)[C@H]2O)c2nc(N)[nH]c(=O)c21")
0.26
>>> quantitative_readout("CO[C@H]1[C@@H](O)[C@H](n2c[n+](C)c3c(=O)[nH]c(N)nc32)O[C@@H]1COP(=O)(O)OP(=O)(O)OP(=O)(O)OC[C@H]1O[C@@H](n2cnc3c(=O)[nH]c(N)nc32)[C@H](O)[C@@H]1O [ARCA, m7(3′-Om)GpppG, reference compound]")
1.67
>>> quantitative_readout("C[n+]1cn([C@@H]2O[C@H](COP(=O)(O)OP(=O)(O)OP(=O)(O)OC[C@H]3O[C@@H](n4cnc5c(=O)[nH]c(N)nc54)[C@H](O)[C@@H]3O)[C@@H](O)[C@@]2(C)O)c2nc(N)[nH]c(=O)c21")
1
>>> quantitative_readout("Nc1nc2c(ncn2[C@@H]2O[C@H](COP(=O)(O)OP(=O)(O)OP(=O)(O)OC[C@H]3O[C@@H](c4cn(CCOc5ccc(Cl)cc5)c5c(=O)[nH]c(N)nc45)[C@H](O)[C@@H]3O)[C@@H](O)[C@H]2O)c(=O)[nH]1")
0.08
>>> quantitative_readout("CO[C@@H]1[C@H](O)[C@@H](COP(=O)(O)OP(=O)([O-])OP(=O)([O-])OP(=O)(O)OC[C@H]2O[C@@H](n3c[n+](C)c4c(=O)[nH]c(N)nc43)[C@H](O)[C@@H]2O)O[C@H]1n1c[n+](C)c2c(=O)[nH]c(N)nc21")
0.41

For the compound COCCO[C@@H]1[C@H](O)[C@@H](COP(=O)(O)OP(=O)([S-])OP(=O)(O)OC[C@H]2O[C@@H](n3cnc4c(=O)[nH]c(N)nc43)[C@H](O)[C@@H]2O)O[C@H]1n1c[n+](CCOc2ccc(Cl)cc2)c2c(=O)[nH]c(N)nc21 (some centres unmarked) , the measured koff on eIF4E (Homo sapiens, UniProt P06730) was 0.02

----------
# ASSAYED SYSTEM: T7 RNA Polymerase (Escherichia phage T7, UniProt P00573)
# Sequence (P00573 whole entry): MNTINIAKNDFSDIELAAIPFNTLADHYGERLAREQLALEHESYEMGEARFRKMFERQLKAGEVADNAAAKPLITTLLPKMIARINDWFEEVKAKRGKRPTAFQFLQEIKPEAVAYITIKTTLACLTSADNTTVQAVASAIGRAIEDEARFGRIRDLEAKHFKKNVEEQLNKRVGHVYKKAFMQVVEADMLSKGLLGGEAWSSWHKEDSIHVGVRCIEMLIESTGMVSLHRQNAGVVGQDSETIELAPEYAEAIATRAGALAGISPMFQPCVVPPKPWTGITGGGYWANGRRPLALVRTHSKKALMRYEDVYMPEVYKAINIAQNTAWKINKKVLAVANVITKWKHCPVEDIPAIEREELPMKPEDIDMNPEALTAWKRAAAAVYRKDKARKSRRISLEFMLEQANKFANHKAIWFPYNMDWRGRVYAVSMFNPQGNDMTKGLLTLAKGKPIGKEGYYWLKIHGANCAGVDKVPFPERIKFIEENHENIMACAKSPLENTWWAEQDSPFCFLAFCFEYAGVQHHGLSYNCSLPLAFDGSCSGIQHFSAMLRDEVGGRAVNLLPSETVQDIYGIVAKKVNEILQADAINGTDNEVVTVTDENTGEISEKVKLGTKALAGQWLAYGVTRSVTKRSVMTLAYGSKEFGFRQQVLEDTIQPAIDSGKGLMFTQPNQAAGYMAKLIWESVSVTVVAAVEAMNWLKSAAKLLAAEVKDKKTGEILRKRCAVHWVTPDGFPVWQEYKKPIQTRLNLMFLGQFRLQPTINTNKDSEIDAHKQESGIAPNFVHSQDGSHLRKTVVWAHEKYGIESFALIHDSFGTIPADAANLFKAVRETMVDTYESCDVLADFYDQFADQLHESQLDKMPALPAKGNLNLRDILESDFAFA
# TEST PROTOCOL: Cotranscriptional capping of hEPO mRNA by in vitro transcription (capping fraction)
# Assay type: biochemical
# EXPERIMENTAL CONTEXT: hEPO mRNA used in the in vivo assay
MEASUREMENT NAME: capping %/100 (%/100)
Just the number in %/100, nothing appended.

Reference set, count: 2
>>> quantitative_readout("COCCO[C@@H]1[C@H](O)[C@@H](COP(=O)(O)OP(=O)([O-])OP(=O)(O)OC[C@H]2O[C@@H](n3cnc4c(=O)[nH]c(N)nc43)[C@H](O)[C@@H]2O)O[C@H]1n1c[n+](CCOc2ccc(Cl)cc2)c2c(=O)[nH]c(N)nc21")
0.84
>>> quantitative_readout("CO[C@H]1[C@@H](O)[C@H](n2c[n+](C)c3c(=O)[nH]c(N)nc32)O[C@@H]1COP(=O)(O)OP(=O)(O)OP(=O)(O)OC[C@H]1O[C@@H](n2cnc3c(=O)[nH]c(N)nc32)[C@H](O)[C@@H]1O [ARCA, m7(3′-Om)GpppG, reference compound]")
0.86

Then there is this compound:
Recorded capping %/100 (compound COCCO[C@@H]1[C@H](O)[C@@H](COP(=O)(O)OP(=O)([S-])OP(=O)(O)OC[C@H]2O[C@@H](n3cnc4c(=O)[nH]c(N)nc43)[C@H](O)[C@@H]2O)O[C@H]1n1c[n+](CCOc2ccc(Cl)cc2)c2c(=O)[nH]c(N)nc21 (some centres unmarked) ): 0.94
